Experiment: Plasma pharmacokinetics of CR665 after single IV infusion in human subjects
Details: male, human, plasma, iv, 0.015 mg/kg, Vss, males, 0.015 mg/kg, 1 hour IV infusion, geometric mean
Where a name gives a salt, the structure may show the parent alone. Non-standard residues stand in square brackets, D forms with d. Residues, ends and D or L forms follow the SMILES beside them. *: point of attachment. NH(4-picolyl) = c1cc(CN*)ccn1; dNle = CCCC[C@@H](N)C(=O)O
measurement kind: Vd (L)

1) CCCC[C@@H](NC(=O)[C@@H](Cc1ccccc1)NC(=O)[C@H](N)Cc1ccccc1)C(=O)N[C@H](CCCNC(=N)N)C(=O)NCc1ccncc1 [CR665, acetate salt] (H-[dF][dF][dNle][dR]-{NH(4-picolyl)}) | 17.2

====

Assay: Plasma pharmacokinetics of CR665 after single IV infusion in human subjects
Details: male, human, plasma, iv, 0.06 mg/kg, t1/2, males, 1 hour IV infusion, geometric mean
Where a name gives a salt, the structure may show the parent alone. Non-standard residues stand in square brackets, D forms with d. Residues, ends and D or L forms follow the SMILES beside them. *: point of attachment. NH(4-picolyl) = c1cc(CN*)ccn1; dNle = CCCC[C@@H](N)C(=O)O
measurement kind: half-life (min)

1) CCCC[C@@H](NC(=O)[C@@H](Cc1ccccc1)NC(=O)[C@H](N)Cc1ccccc1)C(=O)N[C@H](CCCNC(=N)N)C(=O)NCc1ccncc1 [CR665, acetate salt] (H-[dF][dF][dNle][dR]-{NH(4-picolyl)}) | 43.7

====

Assay: Plasma pharmacokinetics of CR665 after single IV infusion in human subjects
Conditions: male, human, plasma, intravenous, CL, geometric least squares mean, males, 1-hour infusion, Parts A & B
Where a name gives a salt, the structure may show the parent alone. Non-standard residues stand in square brackets, D forms with d. Residues, ends and D or L forms follow the SMILES beside them. *: point of attachment. NH(4-picolyl) = c1cc(CN*)ccn1; dNle = CCCC[C@@H](N)C(=O)O
measurement kind: clearance (mL/min)

1) CCCC[C@@H](NC(=O)[C@@H](Cc1ccccc1)NC(=O)[C@H](N)Cc1ccccc1)C(=O)N[C@H](CCCNC(=N)N)C(=O)NCc1ccncc1 [CR665, acetate salt] (H-[dF][dF][dNle][dR]-{NH(4-picolyl)}) | 557

====

Assay: Plasma pharmacokinetics of CR665 after single IV infusion in human subjects
Conditions: male, human, plasma, iv, 0.12 mg/kg, Vz, males, 1 hour IV infusion, geometric mean
Structures can show the parent of a compound that is named as a salt. Non-standard residues stand in square brackets, D forms with d. Residues, ends and D or L forms follow the SMILES beside them. *: point of attachment. NH(4-picolyl) = c1cc(CN*)ccn1; dNle = CCCC[C@@H](N)C(=O)O
measurement kind: Vd (L)

1. CCCC[C@@H](NC(=O)[C@@H](Cc1ccccc1)NC(=O)[C@H](N)Cc1ccccc1)C(=O)N[C@H](CCCNC(=N)N)C(=O)NCc1ccncc1 [CR665, acetate salt] (H-[dF][dF][dNle][dR]-{NH(4-picolyl)}) | 75.9

====

Assay: Plasma pharmacokinetics of CR665 after single IV infusion in human subjects
Settings: male, human, plasma, iv, 0.09 mg/kg, Vss, males, 0.09 mg/kg, 5-minute IV infusion, geometric mean
Structures can show the parent of a compound that is named as a salt. Non-standard residues stand in square brackets, D forms with d. Residues, ends and D or L forms follow the SMILES beside them. *: point of attachment. NH(4-picolyl) = c1cc(CN*)ccn1; dNle = CCCC[C@@H](N)C(=O)O
measurement kind: Vd

1) CCCC[C@@H](NC(=O)[C@@H](Cc1ccccc1)NC(=O)[C@H](N)Cc1ccccc1)C(=O)N[C@H](CCCNC(=N)N)C(=O)NCc1ccncc1 [CR665, acetate salt] (H-[dF][dF][dNle][dR]-{NH(4-picolyl)}) | 18.5 L
